target: human JAK1 catalytic kinase (JH1) domain (Homo sapiens (Human), UniProt P23458); assay: ADP-Glo Kinase Assay, recombinant JAK1 catalytic kinase (JH1) domain; assay type: biochemical; conditions: recombinant JH1 domain 4 nM, 35 μM ATP, JAK3-342 peptide, mean, read-out: JAK1 biochem IC50 (nM) Mean
Sequence (P23458 875-1153): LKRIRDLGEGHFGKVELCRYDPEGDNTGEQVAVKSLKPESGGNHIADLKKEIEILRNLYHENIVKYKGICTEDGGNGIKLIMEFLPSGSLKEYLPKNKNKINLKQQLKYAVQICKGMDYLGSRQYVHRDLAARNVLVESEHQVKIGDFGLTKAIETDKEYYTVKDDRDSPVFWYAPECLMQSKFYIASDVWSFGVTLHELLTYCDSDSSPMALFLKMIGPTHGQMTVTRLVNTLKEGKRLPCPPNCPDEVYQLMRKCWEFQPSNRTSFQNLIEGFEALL
Where a name gives a salt, the structure may show the parent alone.
Each entry below carries its reported IC50.
quantity.measured: IC50 (nM)

| compound | quantitative.result |
| --- | --- |
| O=C([C@@H]1C[C@H]1F)N1C2CCC1CN(c1ncnc3[nH]c(-c4ccc(C(F)(F)F)nc4)cc13)C2 [Example 228] | 315 |
| N#Cc1cc(-c2cc3c(N4CC5CCC(C4)N5C(=O)[C@@H]4C[C@H]4F)ccnn3c2)ccn1 [Example 104] | 46 |
| O=C(C1CC(O)(C(F)(F)F)C1)N1C2CCC1CN(c1ncnn3cc(-c4cnn(C(F)F)c4)cc13)C2 (stereo not shown) [Example 36, trifluoroacetate] | 2200 |
| Cn1cc(-c2cc3c(N4CC5CCC(C4)N5S(=O)(=O)[C@@H]4CC4(F)F)ccnn3c2)cn1 [Example 198] | 266 |
| O=C([C@@H]1C[C@H]1F)N1C2CCC1CN(c1ccnn3cc(-c4cnn(C(F)F)c4)cc13)C2 [Example 17] | 37 |
| O=C([C@@H]1C[C@H]1F)N1C2CCC1CN(c1ccnc3[nH]c(C4(F)CC4)nc13)C2 [Example 210] | 798 |
| Cn1cc(-c2cc3c(N4CC5CCC(C4)N5C(=O)[C@@H]4C[C@H]4F)ncnn3c2)cn1 [Example 2] | 324 |
